biological target: cp1352; experiment: BLI
RESULT TYPE: Kd (nM)
Output spec: scalar in nM, unitless text.

Could you share which Kd value was measured for cp203 (Fc fusion, biotinylated for BLI capture (site not stated)) NRMRCYNCGGSPSSSCKEAVTTCGEGRPQPGLEQIKLPGNPPVTLIHQHPACVAAHHCNQVETESVGDVTYPAHRDCYLGDLCNS ?
1.54
